The reported measurements were obtained from PubChem BioAssay (NCI).

Tested on: UACC-62 melanoma
MEASUREMENT PROTOCOL: NCI-60 one-dose screen, 48 h
SETUP CONDITIONS: 10 µM
About 83,000 compounds went through this panel and 20% of them were active in at least one assay; those are over-represented in the sample as a whole. Active and inactive are the calls of the source. Rule for the calls: active = growth percent below 10; inactive = the rest.
Pick one: active, inactive

These recorded examples may help you get a feel for the data.
| COMPOUND | MEASURED ON | ASSIGNED LABEL |
| --- | --- | --- |
| COc1ccc(-c2cc(/C=C/C(=O)c3cc(OC)c(OC)c(OC)c3)[nH]n2)cc1OC | UACC-62 melanoma | inactive |
| COc1ccc(Cn2c(C(N)=O)cc3c2-c2nc(N)ncc2CCC3)cc1 | UACC-62 melanoma | inactive |
| Fc1ccc2nc(-c3nc(-c4ccccc4)n4ccccc34)[nH]c2c1 | UACC-62 melanoma | active |
| CC(=O)C1CCC2C3CC(F)C4=CC(=O)CCC4(C)C3C(O)CC12C (stereo not drawn) | UACC-62 melanoma | inactive |
| O=C(O)c1ccc(P(=O)(O)O)c([N+](=O)[O-])c1 | UACC-62 melanoma | inactive |

Request: Please state the recorded outcome for this compound: CSC1=NCCCC1
Response: inactive

Request: Returns: the outcome recorded for N=c1nc(N)ncn1-c1ccccc1 in this assay.
Response: inactive
